- Target Under Test: PI3K-gamma (Homo sapiens)
- Run Description: PI3K-gamma fluorescence polarization assay
- Format: biochemical
- Protocol Conditions: PI3Kγ Avg. IC50
IC50 vs 0.5 µM: less than gives yes; not less than gives no.

{"Query Smiles": "COc1ccc2c(c1)c(/C=C1\\Oc3ccc(NC(=O)NC4CC4)cc3C1=O)cn2CCCN(C)C", "Classification": "no"}

*Q* Decide: IC50 of Cn1cc(C=C2Oc3cc(O)cc(O)c3C2=O)c2c(C#N)cccc21 strictly below 0.5 µM?
*A* no

* * *

- Target Under Test: human TOR (Homo sapiens)
- Construct: FLAG
- Run Description: mTOR enzyme assay (DELFIA, His6-S6K substrate)
- Type: biochemical
- Protocol Conditions: read-out: mTOR Kinase Avg. IC50
Listing of entries alongside the reported log10 of IC50.
log10 IC50, nM

Examples from the recorded data:
{"Compound": "COc1ccc2c(c1)c(/C=C1\\Oc3cc(O)ccc3C1=O)c(C)n2CCN1CCC(C)CC1 [Example 455]", "Target Under Test": "human TOR (Homo sapiens)", "log10 of IC50": 3.15}
{"Compound": "COc1ccc2c(c1)c(/C=C1\\Oc3cc(O)cc(O)c3C1=O)c(C(=O)N(C)C)n2CCN1CCC(O)C1 (stereo not shown) [Example 306]", "Target Under Test": "human TOR (Homo sapiens)", "log10 of IC50": 2.11}
{"Compound": "COc1ccc2c(c1)c(/C=C1\\Oc3cc(O)ccc3C1=O)c(C)n2CCN1CCCCC1 [Example 454]", "Target Under Test": "human TOR (Homo sapiens)", "log10 of IC50": 3.11}
{"Compound": "N#CCCCCCn1c(-c2ccccc2)c(C=C2Oc3cc(O)cc(O)c3C2=O)c2ccccc21 [Example 225]", "Target Under Test": "human TOR (Homo sapiens)", "log10 of IC50": 2.85}
{"Compound": "COc1cc(F)c2[nH]c(-c3c(C)nn(C)c3C)c(/C=C3\\Oc4ccc(NC(=O)Nc5ccc(C(=O)N6CCN(CCO)CC6)cc5)cc4C3=O)c2c1 [Compound 721]", "Target Under Test": "human TOR (Homo sapiens)", "log10 of IC50": 0.00}

*Q* Please look up its log10 of IC50: COc1ccc2[nH]c(-c3c(C)nn(C)c3C)c(/C=C3\Oc4ccc(NC(=O)Nc5ccc(C(=O)N6CCS(=O)(=O)CC6)cc5)cc4C3=O)c2c1 [Compound 720]
*A* 0.30

*Q* Lookup COc1ccc2c(c1)c(C=C1Oc3cc(O)cc(O)c3C1=O)cn2CCN1CCN(CCO)CC1 [Example 111]
*A* 2.33

*Q* Lookup CNC(=O)Nc1ccc2c(c1)C(=O)/C(=C/c1c(-c3cn(C)nc3C)[nH]c3ccc(OC)cc13)O2 [Compound 722]
*A* 0.30

*Q* Lookup N#CCCCn1c(-c2ccccc2)c(C=C2Oc3cc(O)cc(O)c3C2=O)c2ccccc21 [Example 155]
*A* 1.90

*Q* Lookup COc1ccc2[nH]c(-c3c(C)nn(C)c3C)c(/C=C3\Oc4ccc(NC(=O)Nc5cccnc5)cc4C3=O)c2c1 [Compound 635]
*A* 0.70

*Q* Lookup N#Cc1cccc2c1c(C=C1Oc3cc(O)cc(O)c3C1=O)cn2Cc1ccncc1 [Example 263]
*A* 2.41

* * *

- Target Under Test: PI3K-alpha (Homo sapiens, UniProt P42336)
- Sequence (P42336 whole entry, species assumed): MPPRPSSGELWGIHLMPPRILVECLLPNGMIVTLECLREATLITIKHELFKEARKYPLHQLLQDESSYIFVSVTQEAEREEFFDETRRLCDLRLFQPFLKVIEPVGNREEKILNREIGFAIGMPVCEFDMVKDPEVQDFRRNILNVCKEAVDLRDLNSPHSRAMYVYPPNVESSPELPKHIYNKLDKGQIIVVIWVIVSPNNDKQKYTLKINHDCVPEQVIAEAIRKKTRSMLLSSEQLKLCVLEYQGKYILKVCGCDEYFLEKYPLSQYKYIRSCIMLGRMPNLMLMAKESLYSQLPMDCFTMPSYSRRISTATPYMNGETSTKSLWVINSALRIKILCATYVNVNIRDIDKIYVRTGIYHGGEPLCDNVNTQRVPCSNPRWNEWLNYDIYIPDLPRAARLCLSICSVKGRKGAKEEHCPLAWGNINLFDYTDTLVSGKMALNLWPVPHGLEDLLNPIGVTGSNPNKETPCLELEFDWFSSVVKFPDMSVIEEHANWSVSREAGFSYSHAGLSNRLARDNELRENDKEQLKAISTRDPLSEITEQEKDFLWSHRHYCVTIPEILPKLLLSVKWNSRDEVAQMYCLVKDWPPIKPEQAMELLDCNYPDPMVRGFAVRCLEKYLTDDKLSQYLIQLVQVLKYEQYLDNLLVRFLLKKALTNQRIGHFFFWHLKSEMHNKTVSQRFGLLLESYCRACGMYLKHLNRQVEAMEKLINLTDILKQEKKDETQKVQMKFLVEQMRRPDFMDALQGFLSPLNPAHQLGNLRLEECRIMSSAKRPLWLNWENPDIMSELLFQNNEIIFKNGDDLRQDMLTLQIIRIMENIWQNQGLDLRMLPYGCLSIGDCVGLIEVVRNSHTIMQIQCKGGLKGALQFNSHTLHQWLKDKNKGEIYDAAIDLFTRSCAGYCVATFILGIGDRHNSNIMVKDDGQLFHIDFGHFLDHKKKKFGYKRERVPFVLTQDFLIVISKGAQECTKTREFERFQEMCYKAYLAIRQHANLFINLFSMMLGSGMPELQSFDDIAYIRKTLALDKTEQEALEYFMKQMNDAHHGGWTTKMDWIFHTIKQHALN
- Sequence (P27986 whole entry partner, species assumed): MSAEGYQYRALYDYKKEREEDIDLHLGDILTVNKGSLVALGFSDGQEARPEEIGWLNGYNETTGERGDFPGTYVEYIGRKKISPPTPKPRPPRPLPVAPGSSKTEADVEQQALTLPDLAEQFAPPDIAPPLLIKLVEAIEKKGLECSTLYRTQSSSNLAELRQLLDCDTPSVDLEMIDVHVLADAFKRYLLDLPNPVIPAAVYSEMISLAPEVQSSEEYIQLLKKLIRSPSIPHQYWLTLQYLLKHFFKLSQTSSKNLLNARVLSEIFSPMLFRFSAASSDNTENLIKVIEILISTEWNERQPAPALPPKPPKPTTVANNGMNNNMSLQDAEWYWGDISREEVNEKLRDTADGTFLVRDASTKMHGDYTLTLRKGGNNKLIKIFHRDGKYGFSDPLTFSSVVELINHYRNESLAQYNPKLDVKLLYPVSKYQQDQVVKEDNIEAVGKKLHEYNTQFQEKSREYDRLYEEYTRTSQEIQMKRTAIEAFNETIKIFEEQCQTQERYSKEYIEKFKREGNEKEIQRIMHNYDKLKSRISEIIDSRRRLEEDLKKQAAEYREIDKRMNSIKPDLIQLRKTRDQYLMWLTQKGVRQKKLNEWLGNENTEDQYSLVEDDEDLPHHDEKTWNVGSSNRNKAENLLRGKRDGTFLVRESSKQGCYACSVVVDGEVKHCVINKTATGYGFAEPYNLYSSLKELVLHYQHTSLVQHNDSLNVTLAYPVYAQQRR
- Run Description: PI3K-alpha fluorescence polarization assay
- Type: biochemical
- Protocol Conditions: read-out: PI3Kα Avg. IC50
Parameter Measured: pIC50
Entry type: numeric. Quantity: pIC50, the -log10 of concentration in molar units.

Examples from the recorded data:
{"Query Smiles": "COc1ccc2c(c1)c(/C=C1\\Oc3cc(O)cc(Cl)c3C1=O)c(C)n2CCN1CCN(C)CC1", "Target Under Test": "PI3K-alpha (Homo sapiens, UniProt P42336)", "Parameter Measured": "pIC50", "Observed Result": 7.30}
{"Query Smiles": "CNC(=O)Nc1ccc2c(c1)C(=O)/C(=C/c1c(C(=O)N(C)C)[nH]c3ccc(OC)cc13)O2", "Target Under Test": "PI3K-alpha (Homo sapiens, UniProt P42336)", "Parameter Measured": "pIC50", "Observed Result": 7.62}
{"Query Smiles": "O=C1C(=Cc2c[nH]c3cccc(-c4ccccc4)c23)Oc2cc(O)cc(O)c21", "Target Under Test": "PI3K-alpha (Homo sapiens, UniProt P42336)", "Parameter Measured": "pIC50", "Observed Result": 5.79}

*Q* Please look up its pIC50: COc1ccc2c(c1)c(/C=C1\Oc3cc(O)cc(O)c3C1=O)c(C(=O)N(C)C)n2CCO
*A* 7.94

* * *

- Target Under Test: PI3K-alpha (Homo sapiens, UniProt P42336)
- Run Description: PI3K-alpha fluorescence polarization assay
- Format: biochemical
- Protocol Conditions: PI3Kα Avg. IC50
Parameter Measured: pIC50
Entry type: numeric. Quantity: pIC50, the -log10 of concentration in molar units.

Examples from the recorded data:
{"Query Smiles": "Cc1[nH]c2ccccc2c1/C=C1\\Oc2cc(O)cc(O)c2C1=O", "pIC50": 5.50}
{"Query Smiles": "O=C1C(=Cc2c[nH]c3ccccc23)Oc2cc(O)cc(O)c21", "pIC50": 5.17}
{"Query Smiles": "COc1ccc2c(c1)c(C=C1Oc3cc(O)cc(O)c3C1=O)c(C)n2CCN1CCN(C)CC1", "pIC50": 8.30}
{"Query Smiles": "O=C1/C(=C/c2c(-c3ccc(F)cc3)[nH]c3ccccc23)Oc2c(O)cccc21", "pIC50": 6.32}
{"Query Smiles": "O=C1/C(=C/c2c(-c3ccc(Cl)cc3)[nH]c3ccccc23)Oc2cc(O)cc(O)c21", "pIC50": 6.27}
{"Query Smiles": "COc1ccc2c(c1)c(C=C1Oc3cc(O)cc(O)c3C1=O)c(C)n2CCCN1CCN(C)CC1", "pIC50": 7.83}
{"Query Smiles": "COc1ccc2c(c1)c(/C=C1\\Oc3cc(O)cc(O)c3C1=O)c(C)n2CCCN(C)C", "pIC50": 8.30}
{"Query Smiles": "Cc1[nH]c2ccc(Br)cc2c1/C=C1\\Oc2cc(O)cc(O)c2C1=O", "pIC50": 6.75}
{"Query Smiles": "COc1ccc2c(c1)c(C=C1Oc3cc(O)cc(O)c3C1=O)c(C)n2C", "pIC50": 8.16}
{"Query Smiles": "COc1ccc2c(c1)c(C=C1Oc3cc(O)cc(O)c3C1=O)cn2CCCN1CCN(CCO)CC1", "pIC50": 7.43}

*Q* Please look up its pIC50: COc1ccc2c(c1)c(C=C1Oc3cc(O)cc(O)c3C1=O)cn2CCCN1CCOCC1
*A* 7.38

*Q* Lookup COc1ccc2c(c1)c(C=C1Oc3cc(O)cc(O)c3C1=O)c(C)n2CCN1CCOCC1
*A* 7.95

*Q* Lookup O=C1/C(=C/c2c(-c3ccc(F)cc3)[nH]c3ccccc23)Oc2cc(O)cc(O)c21
*A* 5.80

*Q* Lookup O=C1/C(=C/c2c[nH]c3ccc(Br)cc23)Oc2cc(O)cc(O)c21
*A* 6.37

*Q* Lookup O=C1C(=Cc2c(-c3ccccn3)[nH]c3ccccc23)Oc2cc(O)cc(O)c21
*A* 5.44

*Q* Lookup COc1ccc2c(c1)c(C=C1Oc3cc(O)cc(O)c3C1=O)cn2CCCN(C)C
*A* 7.40

* * *

- Target Under Test: PI3K-gamma (Homo sapiens, UniProt P48736)
- Sequence (P48736 whole entry, species assumed): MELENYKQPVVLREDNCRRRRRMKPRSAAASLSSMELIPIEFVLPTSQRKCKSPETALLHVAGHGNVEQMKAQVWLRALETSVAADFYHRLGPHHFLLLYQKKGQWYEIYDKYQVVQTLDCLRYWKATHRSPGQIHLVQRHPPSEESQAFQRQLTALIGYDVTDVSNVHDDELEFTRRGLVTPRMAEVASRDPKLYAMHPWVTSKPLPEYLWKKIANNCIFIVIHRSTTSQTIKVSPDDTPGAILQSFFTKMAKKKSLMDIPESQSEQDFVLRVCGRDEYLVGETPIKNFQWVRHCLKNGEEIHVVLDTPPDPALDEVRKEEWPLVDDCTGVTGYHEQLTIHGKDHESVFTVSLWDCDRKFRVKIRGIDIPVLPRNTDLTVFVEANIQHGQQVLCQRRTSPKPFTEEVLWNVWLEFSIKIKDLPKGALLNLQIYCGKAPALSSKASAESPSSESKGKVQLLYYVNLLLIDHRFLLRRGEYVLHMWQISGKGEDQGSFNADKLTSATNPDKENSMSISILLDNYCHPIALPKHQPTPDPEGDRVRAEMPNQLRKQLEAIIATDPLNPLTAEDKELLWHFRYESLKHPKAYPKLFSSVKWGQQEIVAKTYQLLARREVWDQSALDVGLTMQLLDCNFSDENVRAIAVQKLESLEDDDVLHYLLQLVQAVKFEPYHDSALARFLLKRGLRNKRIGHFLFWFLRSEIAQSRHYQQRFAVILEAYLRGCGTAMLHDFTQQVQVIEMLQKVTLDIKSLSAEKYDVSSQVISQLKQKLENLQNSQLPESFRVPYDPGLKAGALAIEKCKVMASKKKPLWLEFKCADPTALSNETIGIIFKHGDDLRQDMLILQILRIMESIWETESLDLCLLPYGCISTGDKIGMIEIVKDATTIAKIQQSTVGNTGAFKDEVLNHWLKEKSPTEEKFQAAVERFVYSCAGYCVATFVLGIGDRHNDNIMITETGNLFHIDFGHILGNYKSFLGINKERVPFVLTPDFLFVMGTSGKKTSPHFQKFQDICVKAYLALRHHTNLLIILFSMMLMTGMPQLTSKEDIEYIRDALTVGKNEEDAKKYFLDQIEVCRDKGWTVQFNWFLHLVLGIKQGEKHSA
- Run Description: PI3K-gamma fluorescence polarization assay
- Type: biochemical
- Protocol Conditions: PI3Kγ Avg. IC50
IC50 vs 600 nM: less than gives Satisfied; not less than gives Not satisfied.

The following compounds have reported results that may help.
{"Compound": "COc1cc(O)cc2c1C(=O)/C(=C/c1c(-c3ccccc3)n(C)c3ccccc13)O2", "Classification": "Not satisfied"}
{"Compound": "COC(=O)Nc1ccc2c(c1)C(=O)/C(=C/c1cn(CCCN(C)C)c3ccc(OC)cc13)O2", "Classification": "Not satisfied"}
{"Compound": "O=C1C(=Cc2c(-c3ccccc3)n(CCN3CCOCC3)c3ccccc23)Oc2cc(O)cc(O)c21", "Classification": "Not satisfied"}
{"Compound": "COc1ccc2[nH]c(-c3c(C)nn(C)c3C)c(/C=C3\\Oc4ccc(NC(=O)Nc5ccc(NC(=O)CCN(C)C)cc5)cc4C3=O)c2c1", "Classification": "Satisfied"}
{"Compound": "COc1ccc2[nH]cc(/C=C3\\Oc4cc(O)cc(OC)c4C3=O)c2c1", "Classification": "Not satisfied"}
{"Compound": "CN(C)c1cccc(-c2cccc3c2c(/C=C2\\Oc4cc(O)cc(O)c4C2=O)cn3C)c1", "Classification": "Not satisfied"}
{"Compound": "COc1ccc2[nH]cc(/C=C3\\Oc4cc(O)cc(O)c4C3=O)c2c1", "Classification": "Satisfied"}
{"Compound": "COc1ccc2c(c1)c(/C=C1\\Oc3ccc(NC(=O)Nc4ccc(N(C)C(=O)CCN(C)C)cc4)cc3C1=O)c(C)n2CCN1CCN(C)CC1", "Classification": "Not satisfied"}
{"Compound": "CNC(=O)Nc1ccc2c(c1)C(=O)/C(=C/c1c(-c3c(C)nn(C)c3C)n(CCNCCO)c3ccc(OC)cc13)O2", "Classification": "Satisfied"}
{"Compound": "COc1ccc2[nH]c(-c3c(C)nn(C)c3C)c(/C=C3\\Oc4ccc(NC(=O)Nc5ccc(C(=O)N(C)C6CCN(C)C6)cc5)cc4C3=O)c2c1 (stereo not shown)", "Classification": "Satisfied"}

*Q* Decide: IC50 of CC(C)Cn1c(-c2ccccc2)c(C=C2Oc3cc(O)cc(O)c3C2=O)c2ccccc21 strictly below 600 nM?
*A* Not satisfied

*Q* Lookup O=C1C(=Cc2c[nH]c3ccc(F)cc23)Oc2cc(O)cc(O)c21
*A* Not satisfied

*Q* Lookup Cn1cc(C=C2Oc3cc(O)cc(O)c3C2=O)c2c(-c3ccccc3)cccc21 [Example 268]
*A* Not satisfied

*Q* Lookup COc1ccc2c(c1)c(/C=C1\Oc3cc(O)cc(O)c3C1=O)c(-c1cnn(C)c1)n2CC(=O)N(C)C
*A* Satisfied

*Q* Lookup COc1ccc2c(c1)c(/C=C1\Oc3cc(-c4cnc(N)nc4)ccc3C1=O)cn2CCCN(C)C
*A* Not satisfied

*Q* Lookup COc1ccc2c(c1)c(C=C1Oc3cc(O)cc(O)c3C1=O)c(C)n2CCCCN1CCN(CCO)CC1
*A* Satisfied

*Q* Lookup Cn1cc(/C=C2\Oc3cc(O)cc(O)c3C2=O)c2c(-c3ccc(F)cc3)cccc21
*A* Not satisfied

*Q* Lookup CNC(=O)Nc1ccc2c(c1)C(=O)/C(=C/c1c(-c3c(C)nn(C)c3C)n(CCNCCN(C)C)c3ccc(OC)cc13)O2
*A* Satisfied
